Test system: Leishmania amazonensis promastigotes
Experiment: Promastigote susceptibility assay (resazurin), L. amazonensis
Format: cell-based
Settings: SI = CC50 (J774 macrophages)/IC50
L. amazonensis promastigote selectivity index (SI) overview

COc1ccc2c(c1)[n+]([O-])c(-c1ccccc1)c(C(=O)NCC(=O)O)[n+]2[O-] [Compound 5f]; > 30

-- ask What value of L. amazonensis promastigote selectivity index (SI) has been recorded for this entry: CCCCCCCCCCCCCCCCOP(=O)([O-])OCC[N+](C)(C)C [Miltefosine, reference compound]
-- reply 2.8

-- ask What value of L. amazonensis promastigote selectivity index (SI) has been recorded for this entry: COc1ccc2c(c1)[n+]([O-])c(-c1ccc(C(F)(F)F)cc1)c(C(=O)NCC(=O)O)[n+]2[O-] [Compound 5h]
-- reply > 8
